The origin of these recorded values is patent US9822099B2.

system: Venturia inaequalis; assay: Example O: Venturia test (apples)/preventive; assay type: in vivo; settings: 100 ppm of active ingredient, preventive, evaluated 10 days after inoculation
Measurement label: Eff. %

                                    compound  readout_value
 0  OC(Cc1cc(F)ncc1Cl)(Cn1cncn1)C1(F)CC1 (racemic)           100%
 1  OC(Cc1nccnc1I)(Cn1cncn1)C1(Cl)CC1 (centres unmarked)            89%
 2  CC1(C(O)(Cc2cccnc2Cl)Cn2cncn2)CC1 (centres unmarked)           100%
 3  CC(C)(F)C(O)(Cc1ccncc1Cl)Cn1cncn1 (racemic)            74%
 4  OC(Cc1ccncc1F)(Cn1cncn1)C1(Cl)CC1 (centres unmarked)           100%
 5  OC(Cc1cccnc1Cl)(Cn1cncn1)C1(Cl)CC1 (centres unmarked)            98%
 6  CC1(C(O)(Cc2ccncc2Cl)Cn2cncn2)CC1 (centres unmarked)           100%
 7  CC(CF)(CF)C(O)(Cc1ccncc1Cl)Cn1cncn1 (centres unmarked)           100%
 8  OC(Cc1ccc(Cl)nc1Cl)(Cn1cncn1)C1(Cl)CC1 (centres unmarked)            97%
 9  OC(CCc1ccc(Cl)cc1)(Cc1ccncc1Cl)Cn1cncn1 (racemic)           100%
10  OC(Cc1ccncc1Cl)(Cn1cncn1)C1(Cl)CC1 (centres unmarked)           100%
11  OC(Cc1ccnc(Cl)c1Cl)(Cn1cncn1)C1(Cl)CC1 (racemic)            95%
12  OC(Cc1cccnc1Cl)(Cn1cncn1)C1(F)CC1 (centres unmarked)            89%
13  OC(Cc1c(Cl)cncc1Cl)(Cn1cncn1)C1(F)CC1 (racemic)           100%
14  OC(Cc1ccncc1Cl)(Cn1cncn1)C1(F)CC1 (centres unmarked)            98%
15  OC(Cc1cccnc1F)(Cn1cncn1)C1(Cl)CC1 (centres unmarked)            94%
16  OC(Cc1ccnc(Cl)c1F)(Cn1cncn1)C1(Cl)CC1 (centres unmarked)           100%

----------
conditions: pH 2.7
Marks after values point to notes of the source that are not given here.
Measurement label: LogP

>>> print(df.to_string())
                                   molecule  readout_value
0  Cc1cnc(CC(O)(Cn2cncn2)C2(Cl)CC2)c(Cl)n1 (centres unmarked)       2.05^[a]
1  OC(Cc1ccncc1C(F)(F)F)(Cn1cncn1)C1(Cl)CC1 (racemic)       2.08^[a]
2  OC(Cc1cnccn1)(Cn1cncn1)C1(Cl)CC1 (centres unmarked)       1.13^[a]
3  OC(Cc1cccc(Cl)c1)(Cc1ccncc1F)Cn1cncn1 (centres unmarked)       2.00^[a]
4  OC(Cc1ccnc(Cl)c1F)(Cn1cncn1)c1ccc(Cl)nc1 (racemic)       1.23^[a]

----------
settings: method [a]: LC-MS at pH 2.7, 0.1% formic acid in water / acetonitrile gradient
Measurement label: LogP

                                    compound  readout_value
 0  CC(CF)(CF)C1(Cc2ccnc(Cl)c2F)CO1 (centres unmarked) [XII-27]       2.65^[a]
 1  Clc1cnccc1CC1(C2(Cl)CCCCC2)CO1 (centres unmarked) [XII-17]       3.80^[a]
 2    CC(C)(F)C(=O)Cc1ccncc1Cl [Example V-8]       1.97^[a]
 3  Clc1cc(CC2(C3(Cl)CC3)CO2)c(Cl)cn1 (centres unmarked) [XII-42]       3.70^[a]
 4  Clc1ccc(CC2(C3(Cl)CC3)CO2)c(Cl)n1 (centres unmarked) [XII-30]       3.71^[a]
 5  O=C(Cc1cc(Cl)cnc1Cl)C1(Cl)CC1 [Example V-21]       3.12^[a]
 6  Fc1cc(CC2(C3(F)CC3)CO2)c(Cl)cn1 (centres unmarked) [XII-21]       2.80^[a]
 7  Clc1cccnc1CC1(C2(Cl)CC2)CO1 (centres unmarked) [XII-4]       2.69^[a]
 8  Cc1cccc2cc(CC3(C4(Cl)CC4)CO3)c(Cl)nc12 (centres unmarked) [XII-39]       4.90^[a]
 9    O=C(Cc1cccnc1)C1(Cl)CC1 [Example V-19]       0.23^[a]
10  O=C(Cc1ccc(Cl)nc1Cl)C1(Cl)CC1 [Example V-17]       3.19^[a]

----------
In this section, each of the compounds is paired with its reported Eff. %.
test system: Puccinia recondita; experiment: Example B: in vivo preventive test on Puccinia recondita (brown rust on wheat); details: 500 ppm of active ingredient; wheat plants, preventive spray; evaluated 11 days after inoculation
Measurement label: Eff. % (%)

In [3]: df
Out[3]:
                                    compound  measurement_unit  readout_value
 0  OC(Cc1ncccc1Cl)(Cn1cncn1)C1(Cl)CC1 (centres unmarked) [Example I-2]                 %             94
 1  OC(Cc1ncnc(Cl)c1Cl)(Cn1cncn1)C1(Cl)CC1 (centres unmarked) [Example I-57]                 %             86
 2  CC(C)(F)C(O)(Cc1ccncc1Cl)Cn1cncn1 (racemic) [Example I-76]                 %            100
 3  OC(Cc1ccnc(Cl)c1)(Cn1cncn1)C1(F)CC1 (centres unmarked) [Example I-33]                 %             93
 4  OC(Cc1ccccc1F)(Cc1cc(F)ncc1Cl)Cn1cncn1 (racemic) [Example I-64]                 %             83
 5  OC(Cc1ccnc(Cl)c1F)(Cn1cncn1)C1(F)CC1 (racemic) [Example I-87]                 %             89
 6  OC(Cc1ccncc1Cl)(Cn1cncn1)C1(Cl)CC1 (centres unmarked) [Example I-5]                 %            100
 7  OC(Cc1ccnc(Cl)c1)(Cn1cncn1)C1(Cl)CC1 (centres unmarked) [Example I-39]                 %             97
 8  OC(Cc1ccnc(Cl)c1Cl)(Cn1cncn1)C1(Cl)CC1 (racemic) [Example I-82]                 %             98
 9  OC(Cc1cc(Oc2ccc(Cl)cc2)nnc1Cl)(Cn1cncn1)C1(Cl)CC1 (centres unmarked) [Example I-55]                 %             79
10  OC(Cc1ccncc1Cl)(Cn1cncn1)C1CCC1 (racemic) [Example I-77]                 %             98
11  OC(Cc1cccnc1F)(Cn1cncn1)C1(Cl)CC1 (centres unmarked) [Example I-51]                 %             98
12  OC(Cc1cccc(Cl)n1)(Cn1cncn1)C1(Cl)CC1 (centres unmarked) [Example I-29]                 %             97
13  OC(Cc1ccc(Cl)cn1)(Cn1cncn1)C1(Cl)CC1 (racemic) [Example I-67]                 %             98
14  CC(C)(Oc1ccc(F)cc1)C(O)(Cc1ccncc1Cl)Cn1cncn1 (racemic) [Example I-91]                 %             89
15  OC(Cc1ccnc(Cl)c1F)(Cn1cncn1)C1(Cl)CC1 (centres unmarked) [Example I-60]                 %             98
16  OC(Cc1ccncc1Cl)(Cn1cncn1)c1ccc2oc3ccccc3c2c1 (racemic) [Example I-80]                 %             88
17  OC(Cc1ccncc1C(F)(F)F)(Cn1cncn1)C1(Cl)CC1 (racemic) [Example I-81]                 %            100
18  CC(CF)(CF)C(O)(Cc1ccnc(Cl)c1F)Cn1cncn1 (centres unmarked) [Example I-61]                 %             98
19  OC(Cc1cc(F)ncc1Cl)(Cn1cncn1)C1(F)CC1 (racemic) [Example I-65]                 %             98
20  OC(CCc1ccccc1Cl)(Cc1ccncc1Cl)Cn1cncn1 (racemic) [Example I-68]                 %             94
21  Cc1cccc2cc(CC(O)(Cn3cncn3)C3(Cl)CC3)c(Cl)nc12 (racemic) [Example I-84]                 %             88
22  CC(C)(Oc1ccc(Cl)cc1)C(O)(Cc1ccncc1Cl)Cn1cncn1 (racemic) [Example I-70]                 %             94
